Assignment: determine reported selectivity ratio for the given compounds.
- PROTOCOL_DETAILS: Selectivity ratio of IC50 for human fibroblasts to IC50 for human melanoma cells
- Type: ADME
- MEASUREMENT_CONTEXT: human fibroblasts and human melanoma cells, read-out: Ratio IC50
Numbers only.

Before answering, review these 3 worked examples.
INPUT: Which value of selectivity ratio has been reported for CCCCCCCCC/C=C\CCCCCCCNC(=O)[C@@H]1CSC(c2ccc(OC)c(OC)c2)N1 (mixture of isomers) in the records?
OUTPUT: 9

INPUT: Further, for CCCCCCCCCCCCCCCCNC[C@@H]1CSC(c2ccccc2)N1 (mixture of isomers) ?
OUTPUT: 8

INPUT: Could you do the same for CCCCCC/C=C\CCCCCCCCNC(=O)[C@@H]1CSC(c2ccc(NC(C)=O)cc2)N1 (mixture of isomers) , please?
OUTPUT: 7

Let us move to another entry and its selectivity ratio.
INPUT: Look at this compound and give its reported selectivity ratio. CCCCCCCCCCCCCCCCNC[C@@H]1CSC(c2ccc(NC(C)=O)cc2)N1 (mixture of isomers)
OUTPUT: 8.6
